Hello, the source for this data is the supplement of paper PMC10883282, in case you need it.

# Tested on: KHOS-240S
# test method notes: relative viability vs DMSO control (72 h) (fraction); higher = more viable cells
# assay setup: 0.00457 µM
relative viability: recorded values
Hey, just send me the number, nothing else.

Some solved entries appear below for comparison.
molecule: CC[C@@H]1C(=O)N(C)c2cnc(Nc3ccc(C(=O)N[C@H]4CC[C@H](N5CCN(CC6CC6)CC5)CC4)cc3OC)nc2N1C(C)C [Volasertib]
test system: KHOS-240S
relative viability: 1.06
//
molecule: N#Cc1ccnc(N2C(=O)CC[C@H]2C(=O)N(c2cncc(F)c2)[C@H](C(=O)NC2CC(F)(F)C2)c2ccccc2Cl)c1 [Ivosidenib]
test system: KHOS-240S
relative viability: 1.06
//
molecule: COc1cc(Nc2c(C#N)cnc3cc(OCCCN4CCN(C)CC4)c(OC)cc23)c(Cl)cc1Cl [Bosutinib]
test system: KHOS-240S
relative viability: 1.1

Challenge: Item Cc1cc(Nc2ncc(Cl)c(Nc3ccccc3S(=O)(=O)C(C)C)n2)c(OC(C)C)cc1C1CCNCC1 [Ceritinib] : provide relative viability
Response given: 1.01
